- Test system: Ryegrass, Italian (Italian ryegrass, Lolium multiflorum)
- Experiment summary: Test A postemergence, Ryegrass, Italian
- Assay type: in vivo
- Condition parameters: Postemergence, 125 g ai/ha; visual injury approx. 10 days; 0 to 100 scale (0 no effect, 100 complete control)
Use label 1 when the recorded Plant response rating, Ryegrass, Italian is no lower than 40; use label 0 when it is lower.

Given the entry Cc1cc(Cl)c(NS(=O)(=O)C(F)(F)F)cc1-c1cn(C)c(=O)n(C)c1=O [Compound 29] , answer whether its Plant response rating, Ryegrass, Italian meets or surpasses 40.
label 1

Given the entry Cc1cc(C)c(C(=O)N2CC(C)OC(C)C2)cc1NS(=O)(=O)C(F)(F)F (centres unmarked) [Compound 9] , answer whether its Plant response rating, Ryegrass, Italian meets or surpasses 40.
label 1

Given the entry Cc1cc(C)c(N(S(C)(=O)=O)S(=O)(=O)C(F)(F)F)cc1-c1ccnn(C)c1=O [Compound 73] , answer whether its Plant response rating, Ryegrass, Italian meets or surpasses 40.
label 1

Given the entry COC(=O)N(c1cc(-c2ccnn(C)c2=O)c(C)cc1C)S(=O)(=O)C(F)(F)F [Compound 53] , answer whether its Plant response rating, Ryegrass, Italian meets or surpasses 40.
label 0

Field: next molecule
Given the entry Cc1cc(-c2cc(N(S(=O)(=O)C(F)(F)F)S(=O)(=O)C(F)(F)F)c(C)cc2C)c(=O)n(C)n1 [Compound 75] , answer whether its Plant response rating, Ryegrass, Italian meets or surpasses 40.
label 0

This collection of values is drawn from patent US20230278972A1.
